Field: bioavailabiltty (% HC) oral AUC. Provide a value for each of the compounds that follow.
- assayRemarks: Oral bioavailability of hydrocodone conjugates (plasma hydrocodone plus hydromorphone)
- conditionParameters: oral, rats; relative to hydrocodone
Residues, ends and D or L forms follow the SMILES beside them. *: point of attachment. X1 = COc1ccc2c3c1OC1C(O*)=CCC4[C@@H](C2)N(C)CC[C@]314
Unit % HC implied. Number only.

Recorded bioavailabiltty (% HC) oral AUC for CC[C@H](C)[C@H](NC(=O)[C@H](Cc1ccccc1)NC(=O)[C@H](Cc1ccccc1)NC(=O)[C@H](Cc1ccc(O)cc1)NC(=O)[C@@H](N)Cc1ccc(O)cc1)C(=O)OC1=CCC2[C@H]3Cc4ccc(OC)c5c4[C@@]2(CCN3C)C1O5 (stereo partly shown) [Tyr2-Phe2-Ile-HC] (H-YYFFI-X1) , please? 113

Please answer likewise for COc1ccc2c3c1OC1C(OC(=O)[C@H](CC(C)C)NC(=O)[C@@H]4CCCN4C(=O)[C@@H]4CCCN4)=CCC4[C@@H](C2)N(C)CC[C@]314 (stereo partly shown) 94

Please answer likewise for CC[C@H](C)[C@H](NC(=O)[C@@H]1CCCN1C(=O)[C@@H]1CCCN1C(=O)[C@H](CCCCN)NC(=O)[C@@H](N)CCCCN)C(=O)OC1=CCC2[C@H]3Cc4ccc(OC)c5c4[C@@]2(CCN3C)C1O5 (stereo partly shown) [Lys2-Pro2-Ile-HC] (H-KKPPI-X1) 80

Please answer likewise for CC[C@H](C)[C@H](NC(=O)CNC(=O)CNC(=O)[C@H](CCC(=O)O)NC(=O)[C@@H](N)CCC(=O)O)C(=O)OC1=CCC2[C@H]3Cc4ccc(OC)c5c4[C@@]2(CCN3C)C1O5 (stereo partly shown) [Glu2-Gly2-Ile-HC, Glu2-Gly2-Ile-Hydrocodone] (H-EEGGI-X1) 81

---

- assayRemarks: Oral bioavailability of hydrocodone conjugates (plasma hydrocodone plus hydromorphone)
- conditionParameters: ratio of oral to IN AUC (% HC)
Residues, ends and D or L forms follow the SMILES beside them. *: point of attachment. X1 = COc1ccc2c3c1OC1C(O*)=CCC4[C@@H](C2)N(C)CC[C@]314
Field: Oral:IN Index AUC. Provide a value for each of the compounds that follow.
Write the value as a bare number.

Recorded Oral:IN Index AUC for CC[C@H](C)[C@H](NC(=O)[C@@H]1CCCN1C(=O)[C@@H]1CCCN1C(=O)[C@H](CCCCN)NC(=O)[C@@H](N)CCCCN)C(=O)OC1=CCC2[C@H]3Cc4ccc(OC)c5c4[C@@]2(CCN3C)C1O5 (stereo partly shown) [Lys2-Pro2-Ile-HC] (H-KKPPI-X1) , please? 1.18

Please answer likewise for COc1ccc2c3c1OC1C(OC(=O)[C@H](Cc4ccccc4)NC(=O)CNC(=O)CNC(=O)[C@H](CCC(=O)O)NC(=O)[C@@H](N)CCC(=O)O)=CCC4[C@@H](C2)N(C)CC[C@]314 (stereo partly shown) [Glu2-Gly2-Phe-HC] (H-EEGGF-X1) 1.24

Please answer likewise for CC[C@H](C)[C@H](NC(=O)[C@H](CCC(=O)O)NC(=O)[C@@H](N)CCC(=O)O)C(=O)OC1=CCC2[C@H]3Cc4ccc(OC)c5c4[C@@]2(CCN3C)C1O5 (stereo partly shown) 1.60

Please answer likewise for CC[C@H](C)[C@H](NC(=O)[C@@H]1CCCN1)C(=O)N[C@H](C(=O)OC1=CCC2[C@H]3Cc4ccc(OC)c5c4[C@@]2(CCN3C)C1O5)[C@@H](C)CC (stereo partly shown) 1.21

Please answer likewise for CC[C@H](C)[C@H](NC(=O)[C@H](CC(=O)O)NC(=O)[C@H](CC(=O)O)NC(=O)[C@H](CCC(=O)O)NC(=O)[C@@H](N)CCC(=O)O)C(=O)OC1=CCC2[C@H]3Cc4ccc(OC)c5c4[C@@]2(CCN3C)C1O5 (stereo partly shown) [Glu2-Asp2-Ile-HC] (H-EEDDI-X1) 2.04

Please answer likewise for CC[C@H](C)[C@H](NC(=O)[C@H](CCC(=O)O)NC(=O)[C@H](CCC(=O)O)NC(=O)CNC(=O)CN)C(=O)OC1=CCC2[C@H]3Cc4ccc(OC)c5c4[C@@]2(CCN3C)C1O5 (stereo partly shown) [Gly2-Glu2-Ile-HC] (H-GGEEI-X1) 1.45

Please answer likewise for COc1ccc2c3c1OC1C(OC(=O)[C@H](Cc4ccccc4)NC(=O)[C@@H]4CCCN4C(=O)[C@@H](N)CC(C)C)=CCC4[C@@H](C2)N(C)CC[C@]314 (stereo partly shown) 1.28

---

- assayRemarks: Intranasal bioavailability of hydrocodone conjugates
- conditionParameters: rats, relative to hydrocodone
Residues, ends and D or L forms follow the SMILES beside them. *: point of attachment. X1 = COc1ccc2c3c1OC1C(O*)=CCC4[C@@H](C2)N(C)CC[C@]314
readoutLabel: bioavailabiltty (% HC) IN AUC
Unit % HC implied. Number only.

Recorded bioavailabiltty (% HC) IN AUC for COc1ccc2c3c1OC1C(OC(=O)[C@H](Cc4ccccc4)NC(=O)[C@H](Cc4ccccc4)NC(=O)[C@H](Cc4ccccc4)NC(=O)[C@H](CCC(=O)O)NC(=O)[C@@H](N)CCC(=O)O)=CCC4[C@@H](C2)N(C)CC[C@]314 (some centres unmarked) [Glu2-Phe3-HC, Glu2-Phe3-Hydrocodone] (H-EEFFF-X1) , please? 27

Please answer likewise for CC[C@H](C)[C@H](NC(=O)[C@H](Cc1ccccc1)NC(=O)[C@H](Cc1ccccc1)NC(=O)[C@H](Cc1ccc(O)cc1)NC(=O)[C@@H](N)Cc1ccc(O)cc1)C(=O)OC1=CCC2[C@H]3Cc4ccc(OC)c5c4[C@@]2(CCN3C)C1O5 (some centres unmarked) [Tyr2-Phe2-Ile-HC] (H-YYFFI-X1) 26

Please answer likewise for CC[C@H](C)[C@H](NC(=O)[C@H](CCC(=O)O)NC(=O)[C@@H](N)CCC(=O)O)C(=O)OC1=CCC2[C@H]3Cc4ccc(OC)c5c4[C@@]2(CCN3C)C1O5 (stereo partly drawn) [Glu-Glu-Ile-HC] 52

Please answer likewise for CC[C@H](C)[C@H](NC(=O)[C@H](CC(C)C)NC(=O)[C@@H]1CCCN1)C(=O)OC1=CCC2[C@H]3Cc4ccc(OC)c5c4[C@@]2(CCN3C)C1O5 (stereo partly drawn) [Pro-Leu-Ile-HC] 87

Please answer likewise for CC[C@H](C)[C@H](NC(=O)[C@@H]1CCCN1)C(=O)N[C@H](C(=O)OC1=CCC2[C@H]3Cc4ccc(OC)c5c4[C@@]2(CCN3C)C1O5)[C@@H](C)CC (stereo partly drawn) [Pro-Ile-Ile-HC] 86

Please answer likewise for CC[C@H](C)[C@H](NC(=O)[C@H](CCCCN)NC(=O)[C@@H](N)CCCCN)C(=O)OC1=CCC2[C@H]3Cc4ccc(OC)c5c4[C@@]2(CCN3C)C1O5 (stereo partly drawn) [Lys-Lys-Ile-HC] 68

Please answer likewise for CC[C@H](C)[C@H](NC(=O)[C@H](Cc1ccc(O)cc1)NC(=O)[C@@H](N)Cc1ccc(O)cc1)C(=O)OC1=CCC2[C@H]3Cc4ccc(OC)c5c4[C@@]2(CCN3C)C1O5 (stereo partly drawn) [Tyr-Tyr-Ile-HC] 20

Please answer likewise for CC[C@H](C)[C@H](NC(=O)[C@H](CCC(=O)O)NC(=O)[C@H](CCC(=O)O)NC(=O)CNC(=O)CN)C(=O)OC1=CCC2[C@H]3Cc4ccc(OC)c5c4[C@@]2(CCN3C)C1O5 (some centres unmarked) [Gly2-Glu2-Ile-HC] (H-GGEEI-X1) 66

Please answer likewise for CC[C@H](C)[C@H](NC(=O)[C@@H]1CCCN1C(=O)[C@@H]1CCCN1C(=O)[C@H](CCCCN)NC(=O)[C@@H](N)CCCCN)C(=O)OC1=CCC2[C@H]3Cc4ccc(OC)c5c4[C@@]2(CCN3C)C1O5 (some centres unmarked) [Lys2-Pro2-Ile-HC] (H-KKPPI-X1) 68

Please answer likewise for CC[C@H](C)[C@H](NC(=O)[C@H](CC(=O)O)NC(=O)[C@H](CC(=O)O)NC(=O)[C@H](CCC(=O)O)NC(=O)[C@@H](N)CCC(=O)O)C(=O)OC1=CCC2[C@H]3Cc4ccc(OC)c5c4[C@@]2(CCN3C)C1O5 (some centres unmarked) [Glu2-Asp2-Ile-HC] (H-EEDDI-X1) 53

Please answer likewise for CC[C@H](C)[C@H](NC(=O)[C@@H]1CCCN1C(=O)[C@@H]1CCCN1C(=O)CNC(=O)CN)C(=O)OC1=CCC2[C@H]3Cc4ccc(OC)c5c4[C@@]2(CCN3C)C1O5 (some centres unmarked) [Gly2-Pro2-Ile-HC] (H-GGPPI-X1) 44

Please answer likewise for CC[C@H](C)[C@H](NC(=O)[C@H](CC(=O)O)NC(=O)[C@H](CC(=O)O)NC(=O)[C@H](CCCCN)NC(=O)[C@@H](N)CCCCN)C(=O)OC1=CCC2[C@H]3Cc4ccc(OC)c5c4[C@@]2(CCN3C)C1O5 (some centres unmarked) [Lys2-Asp2-Ile-HC] (H-KKDDI-X1) 39

Please answer likewise for CC[C@H](C)[C@H](NC(=O)[C@H](Cc1ccccc1)NC(=O)[C@H](Cc1ccccc1)NC(=O)[C@H](CCC(=O)O)NC(=O)[C@@H](N)CCC(=O)O)C(=O)OC1=CCC2[C@H]3Cc4ccc(OC)c5c4[C@@]2(CCN3C)C1O5 (some centres unmarked) [Glu2-Phe2-Ile-HC] (H-EEFFI-X1) 68

Please answer likewise for CC[C@H](C)[C@H](NC(=O)CNC(=O)CNC(=O)[C@H](CCC(=O)O)NC(=O)[C@@H](N)CCC(=O)O)C(=O)OC1=CCC2[C@H]3Cc4ccc(OC)c5c4[C@@]2(CCN3C)C1O5 (some centres unmarked) [Glu2-Gly2-Ile-HC, Glu2-Gly2-Ile-Hydrocodone] (H-EEGGI-X1) 50

Please answer likewise for COc1ccc2c3c1OC1C(OC(=O)[C@H](CC(C)C)NC(=O)[C@@H]4CCCN4C(=O)[C@@H]4CCCN4)=CCC4[C@@H](C2)N(C)CC[C@]314 (stereo partly drawn) [Pro-Pro-Leu-HC] 46

Please answer likewise for COc1ccc2c3c1OC1C(OC(=O)[C@H](Cc4ccccc4)NC(=O)CNC(=O)CNC(=O)[C@H](CCC(=O)O)NC(=O)[C@@H](N)CCC(=O)O)=CCC4[C@@H](C2)N(C)CC[C@]314 (some centres unmarked) [Glu2-Gly2-Phe-HC] (H-EEGGF-X1) 89

Please answer likewise for COc1ccc2c3c1OC1C(OC(=O)[C@H](Cc4ccccc4)NC(=O)[C@@H]4CCCN4C(=O)[C@@H](N)CC(C)C)=CCC4[C@@H](C2)N(C)CC[C@]314 (stereo partly drawn) [Leu-Pro-Phe-HC] 83
